- assayed-target: T1, ZFP SBS#1114 (synthetic)
- T1 chain: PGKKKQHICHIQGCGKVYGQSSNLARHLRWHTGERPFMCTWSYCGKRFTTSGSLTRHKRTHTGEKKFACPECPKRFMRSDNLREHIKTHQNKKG
- assay-protocol: EMSA
- conditions-used: tags: MBP fusion
assay-endpoint: Kd (nM)

> print(dat)
                                     binder  result.unit  readout.value
1  CAGGTTGAT (dsDNA) DNA 1: CAGGTTGAT DNA 2: ATCAACCTG           nM           2.75
